- System: tet operator sequence
- method: β-galactosidase activity of a tetracycline-regulated promoter in transformed E. coli with revTetR, in the presence and absence of anhydrotetracycline (atc)
- Type: cell-based, Escherichia coli
- run conditions: RevTetR isolate cultured in the presence of anhydrotetracycline (ATC)
Measured β-Galactosidase Activity, Cultured With ATC by item
readout name: β-Galactosidase Activity, Cultured With ATC

• TetRrev28/36: revTetR(BD) N18I E19G V20G E23V (protein, Modified tetracycline repressor, revTetR(BD) N18I E19G V20G E23V) MSRLDKSKVINSALELLIGGGIVGLTTRKLAQKLGVEQPTLYWHVKNKRALLDALAVEILARHHDYSLPAAGESWQSFLRNNAMSFRRALLRYRDGAKVHLGTRPDEKQYDTVETQLRFMTENGFSLRDGLYAISAVSHFTLGAVLEQQEHTAALTDRPAAPDENLPPLLREALQIMDSDDGEQAFLHGLESLIRGFEVQLTALLQIV = 1.0579
• TetRrevAtc4-21: revTetR(BD) K6K D53F L55L V57L I59S A61S (protein, Modified tetracycline repressor, revTetR(BD) K6K D53F L55L V57L I59S A61S) MSRLDKSKVINSALELLNEVGIEGLTTRKLAQKLGVEQPTLYWHVKNKRALLFALALESLSRHHDYSLPAAGESWQSFLRNNAMSFRRALLRYRDGAKVHLGTRPDEKQYDTVETQLRFMTENGFSLRDGLYAISAVSHFTLGAVLEQQEHTAALTDRPAAPDENLPPLLREALQIMDSDDGEQAFLHGLESLIRGFEVQLTALLQIV = 16.831
• TetRrevAtc4-14: revTetR(BD) L51L D53Q V57V E58K L60L A61V R62P H63D (protein, Modified tetracycline repressor, revTetR(BD) L51L D53Q V57V E58K L60L A61V R62P H63D) MSRLDKSKVINSALELLNEVGIEGLTTRKLAQKLGVEQPTLYWHVKNKRALLQALAVKILVPDHDYSLPAAGESWQSFLRNNAMSFRRALLRYRDGAKVHLGTRPDEKQYDTVETQLRFMTENGFSLRDGLYAISAVSHFTLGAVLEQQEHTAALTDRPAAPDENLPPLLREALQIMDSDDGEQAFLHGLESLIRGFEVQLTALLQIV = 25.025
• TetRrevAF3/5: revTetR(BD) V20F G21R R49S (protein, Modified tetracycline repressor, revTetR(BD) V20F G21R R49S) MSRLDKSKVINSALELLNEFRIEGLTTRKLAQKLGVEQPTLYWHVKNKSTLLDALAVEILARHHDYSLPAAGESWQSFLRNNAMSFRRALLRYRDGAKVHLGTRPDEKQYDTVETQLRFMTENGFSLRDGLYAISAVSHFTLGAVLEQQEHTAALTDRPAAPDENLPPLLREALQIMDSDDGEQAFLHGLESLIRGFEVQLTALLQIV = 4.696
